Item-by-item account of IC50
- SYSTEM_UNDER_TEST: cAMP and cAMP-inhibited cGMP 3',5'-cyclic phosphodiesterase 10A (Homo sapiens, UniProt Q9Y233)
Please format your answer as a value with the unit trailing.

Lookup: Which IC50 reading was recorded for the compound CC(=O)c1nn(C)cc1NC(=O)c1nc(C2CC2)cnc1Nc1cncnc1 [Roche-Dataset for PDE10A, Compound 1016] ?
Found: 49 nM

Lookup: Which IC50 reading was recorded for the compound CCn1nc(-c2ccccn2)cc1NC(=O)c1nc(C2CC2)ccc1Nc1cncnc1 [US8470820, 30] ?
Found: 4.73 nM

Lookup: Which IC50 reading was recorded for the compound Cn1cc(-c2ccccc2)nc1COc1ncc(C2CC2)nc1C(=O)NCc1ccccc1 [Roche-Dataset for PDE10A, Compound 59] ?
Found: 57 nM

----------
Observed IC50 for cAMP and cAMP-inhibited cGMP 3',5'-cyclic phosphodiesterase 10A (Homo sapiens), reported per entry below.
Give a bare numeral; the unit nM is implied.

[
  {
    "COMPOUND": "Cn1ncc(C(=O)N2CCC2)c1C(=O)N[C@@H]1CCn2cc(-c3ccccc3OC(F)(F)F)nc2C1 [Roche-Dataset for PDE10A, Compound 253]",
    "IC50 / nM": 44
  },
  {
    "COMPOUND": "O=C(NCCN1CCCc2ccccc21)c1nc(C2CC2)cnc1Nc1cncnc1 [Roche-Dataset for PDE10A, Compound 449]",
    "IC50 / nM": 46
  },
  {
    "COMPOUND": "CNC(=O)c1cc(NC(=O)c2nc(C3CC3)ccc2Nc2cncnc2)n(C)n1 [Roche-Dataset for PDE10A, Compound 576]",
    "IC50 / nM": 74
  },
  {
    "COMPOUND": "O=C(Nc1cc2nc(-c3ccccc3)cn2cc1Br)c1nc(C2CC2)ccc1Nc1cncnc1 [Roche-Dataset for PDE10A, Compound 354]",
    "IC50 / nM": 1.15
  },
  {
    "COMPOUND": "O=C(NC1CCS(=O)(=O)CC1)c1nc(C2CC2)cnc1Nc1cncnc1 [Roche-Dataset for PDE10A, Compound 1031]",
    "IC50 / nM": 10000
  }
]

Lookup: Which IC50 reading was recorded for the compound CN(C)C(=O)c1cc(NC(=O)c2nc(C3CC3)ccc2Nc2cncnc2)nn1C [Roche-Dataset for PDE10A, Compound 1005] ?
Found: 675

Lookup: Which IC50 reading was recorded for the compound O=C(NCCS(=O)(=O)c1ccccc1)c1nc(C2CC2)cnc1Nc1cncnc1 [Roche-Dataset for PDE10A, Compound 746] ?
Found: 3450

----------
Observed pIC50 for cAMP and cAMP-inhibited cGMP 3',5'-cyclic phosphodiesterase 10A (Homo sapiens), reported per entry below.
The quantity pIC50 is defined as the negative base-10 logarithm of the molar concentration.

[
  {
    "MOLECULE": "CN(C)C(=O)c1cnn(C)c1C(=O)Nc1ccn2cc(-c3cccc(OCCCF)c3)nc2n1 [Roche-Dataset for PDE10A, Compound 43]",
    "pIC50": 8.14
  },
  {
    "MOLECULE": "Cc1c(Cl)nn2c(C)c(/C=C/c3nc(N4CCCC4)nn3C)nc2c1C [Roche-Dataset for PDE10A, Compound 309]",
    "pIC50": 7.32
  },
  {
    "MOLECULE": "CNc1nc2cc(NC(=O)c3c(C(=O)N4CCC4)cnn3C)ccn2n1 [Roche-Dataset for PDE10A, Compound 704]",
    "pIC50": 8.11
  },
  {
    "MOLECULE": "Cc1noc(C(F)(F)F)c1C(=O)Nc1ccn2nc(-c3ccccc3)nc2c1 [Roche-Dataset for PDE10A, Compound 478]",
    "pIC50": 5.03
  },
  {
    "MOLECULE": "Cc1c(Cl)cc(C(F)(F)F)c2nc(CCc3nc(I)nn3C)nn12 [Roche-Dataset for PDE10A, Compound 615]",
    "pIC50": 6.91
  },
  {
    "MOLECULE": "Cn1cc(-c2ccccc2)nc1CCc1nc(N2CCOCC2)c2cc(Cl)ccc2n1 [Roche-Dataset for PDE10A, Compound 54]",
    "pIC50": 8.97
  },
  {
    "MOLECULE": "CNC(=O)c1cc2[nH]c(-c3ccccc3)nc2cc1NC(=O)c1ccnn1C [Roche-Dataset for PDE10A, Compound 452]",
    "pIC50": 7.85
  },
  {
    "MOLECULE": "Cc1ncc(C2CC2)c2nc(CCc3nc(N4CCCC4)nn3C)nn12 [Roche-Dataset for PDE10A, Compound 605]",
    "pIC50": 8.48
  }
]

Lookup: Checklist item: pIC50 tested on cAMP and cAMP-inhibited cGMP 3',5'-cyclic phosphodiesterase 10A (Homo sapiens), entry Cn1ncc(C(=O)O)c1C(=O)Nc1ccn2nc(-c3cccc(F)c3)nc2c1 [Roche-Dataset for PDE10A, Compound 380] , value?
Found: 7.60

Lookup: Checklist item: pIC50 tested on cAMP and cAMP-inhibited cGMP 3',5'-cyclic phosphodiesterase 10A (Homo sapiens), entry Cc1ncc(C)n2nc(CCc3nc(N)nn3C)nc12 [Roche-Dataset for PDE10A, Compound 1150] , value?
Found: 5.41

Lookup: Checklist item: pIC50 tested on cAMP and cAMP-inhibited cGMP 3',5'-cyclic phosphodiesterase 10A (Homo sapiens), entry O=C(Nc1cn(-c2ccccn2)cn1)c1nc(C2CC2)ccc1Br [Roche-Dataset for PDE10A, Compound 1003] , value?
Found: 6.36

Lookup: Checklist item: pIC50 tested on cAMP and cAMP-inhibited cGMP 3',5'-cyclic phosphodiesterase 10A (Homo sapiens), entry Cc1nc(C(=O)N2CCC2)c(C(=O)Nc2ccn3nc(-c4ccccc4)nc3c2)n1C [Roche-Dataset for PDE10A, Compound 75] , value?
Found: 7.70

Lookup: Checklist item: pIC50 tested on cAMP and cAMP-inhibited cGMP 3',5'-cyclic phosphodiesterase 10A (Homo sapiens), entry COCCOc1ccc(NC(=O)c2nc(C3CC3)cnc2Nc2cncnc2)c(C(=O)NCC(C)(C)O)c1 , value?
Found: 9.13

Cited source for all entries: BindingDB's records for doi:10.1007/s10822-022-00478-x
